- targetEntity: T1, mf TFRC ecto-mmh (REGN2054), monomeric monkey (cyno) Tfrc ectodomain with C-terminal myc-myc-hexahistidine tag (monkey (cyno), Macaca fascicularis, UniProt H9EXL1 89-760)
- T1 construct: range 89-760; also called mfTfR-mmh; mfTFR-mmh
- T1 sequence (chain, as listed by the source): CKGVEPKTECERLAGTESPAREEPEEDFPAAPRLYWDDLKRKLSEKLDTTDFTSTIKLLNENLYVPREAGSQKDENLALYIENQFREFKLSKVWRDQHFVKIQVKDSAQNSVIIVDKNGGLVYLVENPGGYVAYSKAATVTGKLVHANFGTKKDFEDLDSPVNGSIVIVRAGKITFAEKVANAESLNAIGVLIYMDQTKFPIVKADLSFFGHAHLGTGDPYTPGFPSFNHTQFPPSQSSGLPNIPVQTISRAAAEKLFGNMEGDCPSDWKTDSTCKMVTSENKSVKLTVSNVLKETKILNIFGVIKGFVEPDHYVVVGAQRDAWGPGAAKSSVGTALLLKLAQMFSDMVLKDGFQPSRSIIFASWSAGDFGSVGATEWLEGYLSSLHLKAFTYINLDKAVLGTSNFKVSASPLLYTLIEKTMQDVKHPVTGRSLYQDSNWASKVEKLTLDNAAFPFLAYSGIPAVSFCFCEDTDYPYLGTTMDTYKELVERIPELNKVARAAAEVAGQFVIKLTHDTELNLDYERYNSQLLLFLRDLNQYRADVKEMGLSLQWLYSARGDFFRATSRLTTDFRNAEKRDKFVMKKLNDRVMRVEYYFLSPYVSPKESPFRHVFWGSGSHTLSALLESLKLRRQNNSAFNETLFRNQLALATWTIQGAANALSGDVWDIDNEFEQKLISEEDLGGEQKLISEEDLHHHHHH
- testMethodNotes: SPR (Biacore), mAb captured on anti-human Fc, 100 nM mfTfR-mmh, 25 C
Just a reminder that ties go to Not fulfilled: only koff strictly below 0.003 s⁻¹ counts as Fulfilled.

Before answering, review these 6 worked examples.
INSERT INTO assay_data (binder, classassignment) VALUES
  ('69331 (antibody, human IgG1, kappa, V domains shown, Tested as bivalent human IgG1 from CHO primary supernatant) VH: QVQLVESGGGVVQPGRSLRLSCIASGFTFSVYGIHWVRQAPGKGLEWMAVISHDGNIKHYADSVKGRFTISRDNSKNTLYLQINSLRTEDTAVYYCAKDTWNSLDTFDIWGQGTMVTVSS VL: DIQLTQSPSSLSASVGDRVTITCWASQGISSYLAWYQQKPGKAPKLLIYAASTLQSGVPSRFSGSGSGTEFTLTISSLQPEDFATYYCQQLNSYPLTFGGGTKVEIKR', 'Not fulfilled'),
  ('69340 (antibody, human IgG1, kappa, V domains shown, Tested as bivalent human IgG1 from CHO primary supernatant) VH: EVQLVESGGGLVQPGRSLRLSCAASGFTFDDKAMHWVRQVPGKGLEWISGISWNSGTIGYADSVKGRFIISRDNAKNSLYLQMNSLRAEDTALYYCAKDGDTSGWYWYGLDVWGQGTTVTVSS VL: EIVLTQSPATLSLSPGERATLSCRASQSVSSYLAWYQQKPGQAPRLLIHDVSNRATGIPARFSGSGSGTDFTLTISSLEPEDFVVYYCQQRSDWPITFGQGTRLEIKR', 'Fulfilled'),
  ('12802B (antibody, human IgG1, kappa, V domains shown, Tested as bivalent human IgG1 from CHO primary supernatant) VH: QVQLVESGGGLVKPGGSLRLSCAASGFTFSDYFMSWIRQAPGKGLEWVSYISSTGSTINYADSVKGRFTISRDNVKNSLYLQMTSLRVEDTAVYYCTRDNWNYEYWGQGTLVTVSS VL: EIVMTQSPATLSVSPGERATLSCRASQSVSINLAWYQQKPGQAPRLLIFVASTRATGIPARFSGSGSGTEFTLTISSLQSEDFATYYCQQYDIWPYTFGQGTKLEIKR', 'Fulfilled'),
  ('31874B (antibody, human IgG1, kappa, V domains shown, Tested as bivalent human IgG1 from CHO primary supernatant; also called H1H31874B; REGN17517) VH: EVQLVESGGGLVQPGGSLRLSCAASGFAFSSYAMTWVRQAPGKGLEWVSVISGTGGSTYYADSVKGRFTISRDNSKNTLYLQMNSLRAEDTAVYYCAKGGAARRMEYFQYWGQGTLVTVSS VL: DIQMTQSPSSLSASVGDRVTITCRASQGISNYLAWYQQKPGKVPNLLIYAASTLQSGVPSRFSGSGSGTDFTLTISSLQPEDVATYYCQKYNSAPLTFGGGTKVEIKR', 'Not fulfilled'),
  ('12795B (antibody, human IgG1, kappa, V domains shown, Tested as bivalent human IgG1 from CHO primary supernatant) VH: EVQLVESGGGLVQPGGSLRLSCATSGFTFTSYDMKWVRQAPGLGLEWVSAISGSGGNTYYADSVKGRFTISRDNSRNTLYLQMNSLRAEDTAVYYCTRSHDFGAFDYFDYWGQGTLVTVSS VL: DIQMTQSPSSLSASVGDRVTITCRASQGIRDHFGWYQQKPGKAPKRLIYAASSLHSGVPSRFSGSGSGTEFTLTISSLQPEDFATYYCLQYDTYPLTFGGGTKVEIKR', 'Fulfilled'),
  ('12799B (antibody, human IgG1, kappa, V domains shown, Tested as bivalent human IgG1 from CHO primary supernatant; also called H1H12799B; REGN17508) VH: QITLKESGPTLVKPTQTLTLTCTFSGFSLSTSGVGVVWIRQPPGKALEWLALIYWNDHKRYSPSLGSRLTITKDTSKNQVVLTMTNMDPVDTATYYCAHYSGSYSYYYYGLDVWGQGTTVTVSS VL: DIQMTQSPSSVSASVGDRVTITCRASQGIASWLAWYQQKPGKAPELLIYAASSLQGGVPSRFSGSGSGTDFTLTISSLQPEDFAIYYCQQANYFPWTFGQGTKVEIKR', 'Fulfilled');

Query block: Record 12801B (antibody, human IgG1, kappa, V domains shown, Tested as bivalent human IgG1 from CHO primary supernatant) VH: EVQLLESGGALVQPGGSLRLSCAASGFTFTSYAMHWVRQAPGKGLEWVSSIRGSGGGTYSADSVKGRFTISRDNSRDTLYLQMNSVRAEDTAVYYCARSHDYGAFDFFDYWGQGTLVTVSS VL: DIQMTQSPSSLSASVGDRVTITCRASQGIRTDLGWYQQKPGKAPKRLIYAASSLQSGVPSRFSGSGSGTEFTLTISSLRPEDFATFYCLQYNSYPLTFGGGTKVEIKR : is its koff strictly below 0.003 s⁻¹?
Result block: Fulfilled
